Test system: HCT-116 colon
testDetails: NCI tumour cell line growth inhibition, 48 h
property: TGI (µM)
// units = µM; emit number, no label

Worked cases, answers included:
COc1ccc(C(=O)N/N=C/c2ccc(O)cc2O)cc1Nc1ccnc(C(F)(F)F)c1    8.77
C=C(C(=O)OC)[C@@H]1C[C@@H](O)[C@]2(C)CC/C=C(\C)CCC[C@H](C)[C@H](O)C1O2    58
COc1cc(/C=C/C(=O)c2cc(OC)c(OC)c(OC)c2)cc(OC)c1OC    8.74
CC(C)[C@@H](CS(=O)(=O)C(C)C)N1C(=O)[C@@](C)(CC(=O)O)C[C@H](c2cccc(Cl)c2)[C@H]1c1ccc(Cl)cc1    17.2
CCCCC(=O)OC[n+]1ccc2c(C)c3[nH]c4ccc(OC)cc4c3c(C)c2c1    1.37
OC(C(=Nc1ccccc1)c1ccccc1)c1ccccc1 (configuration not stated)    31.8
Clc1ccc(Nc2nc3ccccc3c3occc23)cc1    15.7
COc1ccc2sc3c(NCCCNCCO)nc4ccccc4c3c(=O)c2c1    3.03

// OCCNc1nc2c(N3CCCC3)nc(N3CCNCC3)nc2nc1NCc1ccccc1 : TGI value = 21.9
